Reference source for all entries: the domain aggregation screens of Martell et al. (2025)

Experiment: soluble fraction after stress (log2 fold change); higher = more stays soluble; pooled small domains, quantitative proteomics;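 also: 20 min heating vs room temperature control held 20 min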
Conditions: stress: 75 degC
parameter: soluble fraction (log2)
Could you keep your reply to the number by itself?

// worked examples, soluble fraction (log2) included
primary_sequence=HMVINTRHTGFVVDDLERFINFYLGLGLKLISRKVESGEYIDKLVGLKGTKLEWAKLSLPDNSMIEILKYH reading=-0.508
primary_sequence=HMVAMGQRVVPLTHLSIDDVRRLLESTYGKDSGIEVTKPGTAAKGVIVTAPRTELDGIVALVKQA reading=-0.113

Short answer for HMRIWTPEMIKEYIISSNGKEPLNSHYYSTNHPSIYAAAERIFGSWGNAINAAGLDYNAIRKYK : soluble fraction (log2) was -0.488

----------
soluble fraction (log2) listing for selected sequences.
Test: soluble fraction after stress (log2 fold change); higher = more stays soluble; pooled small domains, quantitative proteomics
Conditions: stress: 75 degC
Simply state the number, no unit and no words.

primary_sequence=HMQTYNQLKRGMTEWIQAGQKQKAYELFAGVAGQLSLSSAAGKKQYNELVTILNRAGFGIPLE parameter="soluble fraction (log2)" reading=-1.12

response.value for HMEPTLVVARDKDAKSPLVAKLMKELGVDAAPRVIVDDSVIGGAKLSHNHTEIDATYKTALINLYQAIT (field: soluble fraction (log2)) = 0.19

For HMRTTYKTRLETLLAGPMSAGDRRFASSLLDFYNRKNRLTPGRARFVAQLEDRYSAEALAARQG the sequence record lists soluble fraction (log2) as -1.19

Reported soluble fraction (log2) for HMHDITPAVAETFKQLRAERGLSLSQAAQLTGVSKAMLGQIERGQSSPTVSTLWKIATGFNVAFSVFL was -2.56

Looking up HMKRLQEQAYDYLKELILSGKMIENEIYSETKLASEIGISRTPIRDALQRLSQDGFIDIIPSKGFRIH , I found its soluble fraction (log2) recorded as -0.734

----------
Assay: soluble fraction after stress (log2 fold change); higher = more stays soluble; pooled small domains, quantitative proteomics
Details: stress: 75 degC
We begin with a simple list: items and their reported soluble fraction (log2).
Form rule: numeric answer, no unit written next to it.

Would you please look over these solved cases?
primary_sequence=HMDDEAVQIMTLHISKGLEFDVVFALGLVSRTPESKEIEELEAEKQRQLYVAMTRAEKWLIVAA reading=0.202
primary_sequence=HMQISSSEVLEKVVDEILSANPKSIEDYKNGKLQAAGFLMGQVMKATKGQANPAVAKELIEAKLKD reading=0.461
primary_sequence=HMVVMEIGANGSEVVKLQKRLNQLGYYTEHASGVYDVKTASAVNEFQRQNELNATGKADYTTLDMIYNQ reading=-0.00159
primary_sequence=HMRVDDITDTILNVLKEQGGFISVTDKSSPETINKLFGVSKKTYKKAIGAIYRKKLIIIEDDGIRLNS reading=-2.4
primary_sequence=HMNIGEKIKKIRTQQNKSTYELADIINKNGFKISQSAISKIENGRKKIDIETLEEIAKALDIEVDLLIT reading=-0.153
primary_sequence=HMLRVGASVTANGKYWYDSYGSKPFGTANNLSTTVTRIVPGNPYPIHIGSYGWLQESQIQIT reading=-1.67

The value of soluble fraction (log2) measured for the sequence HMKSILSEIPGIGPKKRKSLMMQFGSVKNISEASLKDLSSTKGINSNLSKEIFNFFSVEKNN turned out to be -0.0299

For this sequence ( HMTNTDALINRAAKVVEEINPDKNTGRVSIDGDLWRAKSSSGELIEQNKQVIVISIESTIVTVKI ), measured soluble fraction (log2) is -0.228

soluble fraction (log2) for HMRGYGDRIRILRERAGITIEQLAERLGVAPYFIRRTELSEVYPTKPYIEALADVLNIDASYLARHI is -2.46
